Target: T1, human EphB3 (Homo sapiens, UniProt P54753)
T1 construct: a protein of the extracellular region of each human Eph receptor fused with the SEAP protein and the His tag; made in house; host or cells: Expi293F cells
T1 sequence (P54753 34-559 limits assumed): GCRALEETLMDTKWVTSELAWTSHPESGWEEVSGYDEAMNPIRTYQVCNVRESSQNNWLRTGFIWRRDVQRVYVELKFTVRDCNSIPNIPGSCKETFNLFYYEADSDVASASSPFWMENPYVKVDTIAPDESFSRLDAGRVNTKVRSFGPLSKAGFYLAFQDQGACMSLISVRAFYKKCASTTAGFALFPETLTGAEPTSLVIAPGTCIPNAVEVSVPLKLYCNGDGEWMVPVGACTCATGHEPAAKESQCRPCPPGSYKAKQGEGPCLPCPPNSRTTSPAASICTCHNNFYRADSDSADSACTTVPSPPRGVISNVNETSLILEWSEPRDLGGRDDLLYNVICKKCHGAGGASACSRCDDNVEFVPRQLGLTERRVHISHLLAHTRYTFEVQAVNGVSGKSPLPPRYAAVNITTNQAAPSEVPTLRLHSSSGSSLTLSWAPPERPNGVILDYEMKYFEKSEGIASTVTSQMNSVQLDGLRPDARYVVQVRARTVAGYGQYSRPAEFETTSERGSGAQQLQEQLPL
Assay: Selectivity ELISA of humanized antibodies for human Eph receptor
Format: binding
Details: coated protein 1 nM
endpoint.label: hEphB3-SEAP-: absorbance at 450 nm, percentage with respect to hEphA4-SEAP-His as 100% (%)
Give your result in % as a bare value.

Worked examples follow.
- molecule: "81 (antibody, V domains shown, constant regions without entry; synthetic humanized antibody light chain variable region sequence; synthetic humanized antibody heavy chain variable region sequence) VL: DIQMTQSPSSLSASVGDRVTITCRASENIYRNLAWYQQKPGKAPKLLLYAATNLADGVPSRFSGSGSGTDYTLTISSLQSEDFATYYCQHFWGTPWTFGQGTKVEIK VH: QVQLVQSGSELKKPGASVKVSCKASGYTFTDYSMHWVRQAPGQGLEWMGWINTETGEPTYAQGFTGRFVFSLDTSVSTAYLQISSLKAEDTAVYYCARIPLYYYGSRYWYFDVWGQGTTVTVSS"
  assay.value: 4.9
- molecule: "96 (antibody, V domains shown, constant regions without entry; synthetic humanized antibody light chain variable region sequence; synthetic humanized antibody heavy chain variable region sequence) VL: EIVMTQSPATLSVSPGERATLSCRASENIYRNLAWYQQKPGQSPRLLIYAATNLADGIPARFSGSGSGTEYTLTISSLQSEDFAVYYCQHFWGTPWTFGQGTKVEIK VH: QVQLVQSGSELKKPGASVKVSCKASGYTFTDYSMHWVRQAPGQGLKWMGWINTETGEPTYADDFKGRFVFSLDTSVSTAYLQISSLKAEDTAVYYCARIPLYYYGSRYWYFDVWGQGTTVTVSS"
  assay.value: 5.6
- molecule: "133 (antibody, V domains shown, synthetic humanized antibody heavy chain variable region sequence; synthetic humanized antibody light chain variable region sequence) VH: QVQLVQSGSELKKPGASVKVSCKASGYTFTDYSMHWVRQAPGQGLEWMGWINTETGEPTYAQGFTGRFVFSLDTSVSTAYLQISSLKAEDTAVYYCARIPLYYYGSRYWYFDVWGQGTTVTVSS VL: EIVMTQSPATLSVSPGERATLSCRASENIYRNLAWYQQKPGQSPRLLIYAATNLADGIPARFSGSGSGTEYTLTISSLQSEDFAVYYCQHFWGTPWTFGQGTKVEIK"
  assay.value: 4.7

Summary for this molecule, 71 (antibody, V domains shown, synthetic humanized antibody heavy chain variable region sequence; synthetic humanized antibody light chain variable region sequence) VH: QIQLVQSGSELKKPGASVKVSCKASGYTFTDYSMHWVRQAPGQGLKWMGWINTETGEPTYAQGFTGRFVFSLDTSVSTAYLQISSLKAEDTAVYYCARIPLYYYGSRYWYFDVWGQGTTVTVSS VL: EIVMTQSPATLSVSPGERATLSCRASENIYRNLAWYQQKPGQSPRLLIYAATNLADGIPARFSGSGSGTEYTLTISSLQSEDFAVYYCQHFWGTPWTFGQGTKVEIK : hEphB3-SEAP-: absorbance at 450 nm, percentage with respect to hEphA4-SEAP-His as 100% is 5.5
